Ref: patent US10233188B2

What Ki was measured for each of the following?
- target-under-test: CDK2/Cyclin E1 (Homo sapiens (Human), UniProt P24941)
- test-method-notes: biochemical
- condition-label: CDK2_Ki (nM), phosphorylated CDK2/Cyclin E1, 150 μM ATP, Morrison tight-binding fit
Numbers only, in nM.

[[record]]
molecule = "C[C@@]1(O)CCC[C@H]1n1c(=O)ccc2cnc(NC3CCN(S(N)(=O)=O)CC3)nc21 (single isomer, unassigned) [Example 183]"
measured_result = 0.1

[[record]]
molecule = "CNS(=O)(=O)N1CCC(Nc2ncc3cc(F)c(=O)n([C@@H]4CCC[C@@]4(C)O)c3n2)CC1 (single isomer, unassigned) [Example 124]"
measured_result = 0.69

[[record]]
molecule = "CC[C@]1(O)CCC[C@@H]1n1c(=O)ccc2cnc(NC3CCN(S(C)(=O)=O)CC3)nc21 (single isomer, unassigned) [Example 194]"
measured_result = 4.01

[[record]]
molecule = "Cc1cc2cnc(NC3CCN(S(C)(=O)=O)CC3)nc2n(C2CCCCC(O)C2)c1=O (single isomer, unassigned; isomer a) [Example 223]"
measured_result = 57.1

[[record]]
molecule = "Cn1cnc(S(=O)(=O)N2CCC(Nc3ncc4ccc(=O)n([C@H]5CCC[C@]5(C)O)c4n3)CC2)c1 (single isomer, unassigned) [Example 85]"
measured_result = 1.98


Input: Report the value of Ki obtained on CDK2/Cyclin E1 (Homo sapiens (Human), UniProt P24941) for NS(=O)(=O)N1CCC(Nc2ncc3ccc(=O)n(C4CCCC4)c3n2)CC1 [Example 13] .
Output: 0.19

----------
- target-under-test: CDK2/Cyclin E1 (Homo sapiens (Human), UniProt P24941)
- test-method-notes: biochemical
- condition-label: CDK2_Ki (nM), phosphorylated CDK2/Cyclin E1, 150 μM ATP, Morrison tight-binding fit
I'd be grateful if you could share measured Ki for these entries.
Numbers only, in nM.

// below: answered compounds
[[record]]
compound = "C[C@@]1(O)CCCC1n1c(=O)ccc2cnc(NC3CCN(S(=O)(=O)NC[C@H]4CCCO4)CC3)nc21 (single isomer, unassigned; (-))"
target_under_test = "CDK2/Cyclin E1 (Homo sapiens (Human), UniProt P24941)"
measured_result = 0.35

[[record]]
compound = "CNS(=O)(=O)N1CCC(Nc2ncc3ccc(=O)n([C@H]4CCC[C@H]4C)c3n2)CC1"
target_under_test = "CDK2/Cyclin E1 (Homo sapiens (Human), UniProt P24941)"
measured_result = 0.93

[[record]]
compound = "Cc1cc2cnc(NC3CCN(S(C)(=O)=O)CC3)nc2n([C@@H]2COC[C@@]2(C)O)c1=O (single isomer, unassigned)"
target_under_test = "CDK2/Cyclin E1 (Homo sapiens (Human), UniProt P24941)"
measured_result = 4.26

[[record]]
compound = "CS(=O)(=O)N1CCC(Nc2ncc3cc(Cl)c(=O)n([C@H]4CC[C@H](O)C4)c3n2)CC1 (single isomer, unassigned)"
target_under_test = "CDK2/Cyclin E1 (Homo sapiens (Human), UniProt P24941)"
measured_result = 2.76

[[record]]
compound = "CS(=O)(=O)N1CCC(Nc2ncc3cc(C(F)F)c(=O)n([C@@H]4CCC[C@@H](O)C4)c3n2)CC1"
target_under_test = "CDK2/Cyclin E1 (Homo sapiens (Human), UniProt P24941)"
measured_result = 1.2

[[record]]
compound = "Cc1cc2cnc(NC3CCN(S(C)(=O)=O)CC3)nc2n(C2CCCCC(O)C2)c1=O (single isomer, unassigned; isomer d) [Example 226]"
target_under_test = "CDK2/Cyclin E1 (Homo sapiens (Human), UniProt P24941)"
measured_result = 310

[[record]]
compound = "C[C@@H]1[C@H](O)CC[C@@H]1n1c(=O)ccc2cnc(NC3CCN(S(C)(=O)=O)CC3)nc21 (single isomer, unassigned)"
target_under_test = "CDK2/Cyclin E1 (Homo sapiens (Human), UniProt P24941)"
measured_result = 5.05

[[record]]
compound = "Cc1cc2cnc(NC3CCN(S(N)(=O)=O)CC3)nc2n(C2CCCC2)c1=O"
target_under_test = "CDK2/Cyclin E1 (Homo sapiens (Human), UniProt P24941)"
measured_result = 0.22


Please state, for each entry, its recorded Ki.
1. CS(=O)(=O)N1CCC(Nc2ncc3cc(CC(=O)O)c(=O)n(C4CCCC4)c3n2)CC1
2. C[C@@]1(O)CCC[C@H]1n1c(=O)c(CCO)cc2cnc(NC3CCN(S(C)(=O)=O)CC3)nc21 (single isomer, unassigned)
3. COCCS(=O)(=O)N1CCC(Nc2ncc3ccc(=O)n([C@@H]4CCCC4(C)O)c3n2)CC1 (single isomer, unassigned)
4. Cc1cc2cnc(NC3CCN(S(=O)(=O)C(F)(F)F)CC3)nc2n([C@H]2CCC[C@]2(C)O)c1=O (single isomer, unassigned)
5. CS(=O)(=O)N1CCC(Nc2ncc3cc(CC(F)F)c(=O)n([C@H]4CC[C@H](O)C4)c3n2)CC1 (single isomer, unassigned)

Output:
1.57
0.11
0.42
12.6
1.73

I need Ki for every entry listed below, if you could help.
1. Cc1cc2cnc(NC3CCN(S(=O)(=O)NC4CCOCC4)CC3)nc2n([C@@H]2CCC[C@@]2(C)O)c1=O (single isomer, unassigned)
2. CS(=O)(=O)N1CC[C@H](Nc2ncc3cc(CCO)c(=O)n(C4CCCC4)c3n2)[C@@H](F)C1 (single isomer, unassigned)
3. Cc1cc2cnc(NC3CCN(S(=O)(=O)CC(F)(F)F)CC3)nc2n([C@@H]2CCC[C@@]2(C)O)c1=O (single isomer, unassigned)
4. CS(=O)(=O)N1CCC(Nc2ncc3cc(C(F)(F)F)c(=O)n(C4CCCC4)c3n2)CC1
5. C[C@@H]1[C@H](O)CC[C@H]1n1c(=O)c(C(F)F)cc2cnc(NC3CCN(S(C)(=O)=O)CC3)nc21 (single isomer, unassigned)
6. CS(=O)(=O)N1CC[C@H](Nc2ncc3cc(N)c(=O)n(C4CCCC4)c3n2)[C@H](F)C1 (single isomer, unassigned; isomer b)
7. Cc1cc2cnc(NC3CCN(S(C)(=O)=O)CC3)nc2n([C@H]2CC[C@H](O)C2)c1=O (single isomer, unassigned)
8. CNS(=O)(=O)N1CCC(Nc2ncc3ccc(=O)n([C@@H]4CCC[C@@H]4C)c3n2)CC1

Output:
[0.24, 1.4, 0.34, 4.18, 0.51, 2.63, 1.31, 0.09]

Kindly give each listed record's Ki.
1. CC1(C)CC(Nc2ncc3cc(CCO)c(=O)n(C4CCCC4)c3n2)CCN1S(C)(=O)=O (single isomer, unassigned; (+)) [Example 162]
2. C[C@@H]1CCC[C@@H]1n1c(=O)c(CO)cc2cnc(NC3CCN(S(C)(=O)=O)CC3)nc21
3. C[C@@]1(O)CCC[C@H]1n1c(=O)ccc2cnc(NC3CCN(S(=O)(=O)C4CC4)CC3)nc21 (single isomer, unassigned)
4. Cc1cc2cnc(NC3CCN(S(=O)(=O)C(F)(F)F)CC3)nc2n([C@@H]2CCC[C@@]2(C)O)c1=O (single isomer, unassigned)

Output:
[3.92, 1.74, 0.2, 1.32]
